Target of assay: T1, huCTGF domains 1 and 2 with human Fc tag (human)
T1 construct: Made by Evitria; also called Human CTGF1-2-huFc
T1 sequence (chain, as listed by the source limits assumed): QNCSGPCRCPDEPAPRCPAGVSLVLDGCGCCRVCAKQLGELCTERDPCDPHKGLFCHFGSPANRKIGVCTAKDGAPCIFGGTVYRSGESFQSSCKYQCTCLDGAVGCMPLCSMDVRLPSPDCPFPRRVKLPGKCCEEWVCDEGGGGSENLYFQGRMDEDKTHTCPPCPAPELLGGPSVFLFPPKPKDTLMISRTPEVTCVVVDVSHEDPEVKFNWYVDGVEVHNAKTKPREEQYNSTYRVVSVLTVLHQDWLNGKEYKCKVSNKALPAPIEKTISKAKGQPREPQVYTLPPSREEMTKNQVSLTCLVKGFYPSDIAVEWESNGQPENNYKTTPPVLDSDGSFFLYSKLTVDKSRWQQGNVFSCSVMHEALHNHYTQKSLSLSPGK
Protocol notes: ELISA, coated target
Assay metric: EC50 (nM)

binder="lipocalin mutein of SEQ ID NO: 9 (designed binder, Parent hNGAL mutein; also called hNGAL mutein) QDSTSDLIPAPPLSKVPLQQNFQDNQFHGKWYVVGLAGNKILRIDKQPAKMFATIYELKEDKSYDVTSVRFEARSCSYTIKTFVPGSQPGEFTAGNIKSAPGQTSTLVRVVSTNYNQHAMVFFKHVSQNRETFVITLYGRTKELTSELKENFIRFSKSLGLPENHIVFPVPIDQCIDGSAWSHPQFEK" assay_metric=EC50 value_observed=8
